Where these numbers come from: patent US12173018B2

Measured MIC, listed per entry for reference.
- Tested on: N. gonorrhoeae WHO F
- measurement-notes: Liquid broth MIC, N. gonorrhoeae WHO F
- Type: cell-based
- particulars: Neisseria gonorrhoeae; N. gonorrhoeae WHO F, liquid broth; read-out: Minimum Inhibitory Concentration, N. gonorrhoeae WHO F

CCN1C[C@H](CO)N(C(=O)NC(C(=O)N[C@H]2Cc3ccc(F)c(C(=O)O)c3OB2O)c2ccc(O)c(O)c2Cl)C(=O)C1=O (stereo partly drawn) ... 0.25 to 0.5 mg/L
CCN1C[C@H](C)N(C(=O)NC(C(=O)N[C@H]2Cc3cccc(C(=O)O)c3OB2O)c2ncc(O)cc2F)C(=O)C1=O (stereo partly drawn) ... < 0.125 mg/L
C[C@H]1CN(CCO)C(=O)C(=O)N1C(=O)NC(C(=O)N[C@H]1Cc2cccc(C(=O)O)c2OB1O)c1ccc(O)c(O)c1Cl (stereo partly drawn) ... 4 to 8 mg/L

Request the reported MIC associated with CCN1CCN(C(=O)NC(C(=O)N[C@H]2Cc3cccc(C(=O)O)c3OB2O)c2ncc(N)cc2F)C(=O)C1=O (stereo partly drawn)
< 0.125 mg/L

Look up MIC: Nc1ncc(C(NC(=O)N2CCN(CCF)C(=O)C2=O)C(=O)N[C@H]2Cc3ccc(F)c(C(=O)O)c3OB2O)s1 (stereo partly drawn)
0.25 to 0.5 mg/L

// query MIC value for entry CCN1CCN(C(=O)NC(C(=O)N[C@H]2Cc3ccc(F)c(C(=O)O)c3OB2O)c2cnc(N)s2)C(=O)C1=O (stereo partly drawn)
0.25 to 0.5 mg/L

Query: MIC; subject: NS(=O)(=O)c1ccc(C(NC(=O)N2CCN(CCF)C(=O)C2=O)C(=O)N[C@H]2Cc3cccc(C(=O)O)c3OB2O)cc1F (stereo partly drawn)
0.25 to 0.5 mg/L

Recorded MIC of CCN1CCN(C(=O)N[C@@H](C(=O)N[C@H]2Cc3cccc(C(=O)O)c3OB2O)c2ncc(O)cc2F)C(=O)C1=O , please.
< 0.125 mg/L

Could you tell me which MIC is on file for O=C(O)c1cccc2c1OB(O)[C@@H](NC(=O)C(NC(=O)N1C[C@@H]3CCCN3C(=O)C1=O)c1ncc(O)cc1F)C2 (stereo partly drawn) ?
1 to 2 mg/L

Any idea what its MIC is? The molecule is CCN1CCN(C(=O)NC(C(=O)N[C@H]2Cc3cccc(C(=O)O)c3OB2O)c2ccc(C(=O)O)cc2)C(=O)C1=O (stereo partly drawn)
< 0.125 mg/L

Requested read-out: MIC. Entry: CCN1CCN(C(=O)NC(C(=O)N[C@H]2Cc3ccc(F)c(C(=O)O)c3OB2O)c2cc(O)c(O)cc2F)C(=O)C1=O (stereo partly drawn)
1 to 2 mg/L

Requested read-out: MIC. Entry: CCN1C[C@H](C)N(C(=O)NC(C(=O)N[C@H]2Cc3ccc(F)c(C(=O)O)c3OB2O)c2ccc(O)c(O)c2Cl)C(=O)C1=O (stereo partly drawn)
0.25 to 0.5 mg/L
